TARGET_SYSTEM: DP receptor (Homo sapiens)
Construct: the human cell line LS174T, which expresses the endogenous DP receptor; endogenous in cells
Sequence (Q13258 1-359): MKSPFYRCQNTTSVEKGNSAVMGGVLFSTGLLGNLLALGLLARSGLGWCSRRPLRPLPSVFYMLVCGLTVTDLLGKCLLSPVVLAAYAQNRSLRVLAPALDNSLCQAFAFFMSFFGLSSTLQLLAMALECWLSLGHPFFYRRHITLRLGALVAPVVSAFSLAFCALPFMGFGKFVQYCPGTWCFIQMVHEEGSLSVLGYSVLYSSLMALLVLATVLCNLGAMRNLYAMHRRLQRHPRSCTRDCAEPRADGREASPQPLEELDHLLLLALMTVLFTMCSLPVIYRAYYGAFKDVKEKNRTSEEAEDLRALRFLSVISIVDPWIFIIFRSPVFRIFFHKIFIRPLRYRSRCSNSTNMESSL
PROTOCOL_TEXT: SPA cAMP assay in human LS174 T cells (human DP functional assay)
EXPERIMENTAL_SETUP: concentration of the compound producing 50% inhibition in the SPA cAMP assay in human LS174 T cells; PGD2 15 nM final
pIC50: −log10 of the molar value.
# pIC50 annotations

{"columns": ["QUERY_SMILES", "pIC50"],
 "data": [
  ["O=C(O)Cc1c(-c2ccc(Cl)c(S(=O)(=O)NCc3ccc(Cl)cc3Cl)c2)[nH]c2ccccc12", 8.40],
  ["O=C(O)Cc1c(-c2ccc(Cl)c(S(=O)(=O)NCCc3ccc(Cl)cc3Cl)c2)[nH]c2ccccc12", 8.70],
  ["O=C(O)Cc1c(-c2ccc(Cl)c(S(=O)(=O)NCCCc3ccccc3)c2)[nH]c2ccccc12", 8.15]
]}

====

# IC50 annotations
TARGET_SYSTEM: DP receptor (Homo sapiens)
Construct: the human cell line LS174T, which expresses the endogenous DP receptor; endogenous in cells
PROTOCOL_TEXT: SPA cAMP assay in human LS174 T cells (human DP functional assay)
EXPERIMENTAL_SETUP: concentration of the compound producing 50% inhibition in the SPA cAMP assay in human LS174 T cells; PGD2 15 nM final

{"columns": ["QUERY_SMILES", "IC50"],
 "data": [
  ["O=C(O)Cc1c(-c2ccc(Cl)c(NS(=O)(=O)Cc3cccc(Cl)c3)c2)[nH]c2ccccc12", "12 nM"],
  ["CCS(=O)(=O)NC(=O)Cc1c(-c2ccc(Cl)c(S(=O)(=O)NC3CCCCC3)c2)[nH]c2ccccc12", "2.7 nM"],
  ["Cc1cccc2[nH]c(-c3ccc(Cl)c(S(=O)(=O)NC4CCCCC4)c3)c(CC(=O)O)c12", "1.5 nM"],
  ["CS(=O)(=O)NC(=O)Cc1c(-c2ccc(Cl)c(S(=O)(=O)NC3CCCCC3)c2)[nH]c2ccccc12", "2 nM"]
]}

====

TARGET_SYSTEM: DP receptor (Homo sapiens, UniProt Q13258)
Construct: the human cell line LS174T, which expresses the endogenous DP receptor; endogenous in cells
PROTOCOL_TEXT: SPA cAMP assay in human LS174 T cells (human DP functional assay)
EXPERIMENTAL_SETUP: concentration of the compound producing 50% inhibition in the SPA cAMP assay in human LS174 T cells; PGD2 15 nM final

{"columns": ["COMPOUND", "IC50"],
 "data": [
  ["O=C(O)Cc1c(-c2ccc(Cl)c(S(=O)(=O)NC3CCCCC3)c2)[nH]c2cccc(F)c12 [Example 6]", "0.7 nM"],
  ["O=C(Cc1c(-c2ccc(Cl)c(S(=O)(=O)NC3CCCCC3)c2)[nH]c2ccccc12)NS(=O)(=O)C(F)(F)F [Example 11]", "14 nM"],
  ["O=C(O)Cc1c(-c2ccc(Cl)c(S(=O)(=O)NC3CCCCC3)c2)[nH]c2c(Cl)cccc12 [Example 8]", "3.7 nM"],
  ["CCc1ccc(-c2[nH]c3ccccc3c2CC(=O)O)cc1S(=O)(=O)NC1CCCCC1 [Example 13]", "0.5 nM"],
  ["O=C(O)Cc1c(-c2ccc(Cl)c(S(=O)(=O)NCc3c(Cl)cccc3Cl)c2)[nH]c2ccccc12 [Example 1(b)]", "3 nM"],
  ["O=C(O)Cc1c(-c2ccc(Cl)c(S(=O)(=O)NC3CCCCC3)c2)[nH]c2cccc(Cl)c12 [Example 4]", "0.2 nM"],
  ["CNC(=O)Cc1c(-c2ccc(Cl)c(S(=O)(=O)NC3CCCCC3)c2)[nH]c2ccccc12 [Example 3]", "509 nM"]
]}

FYI, the data here is from patent US20090176804A1.
